target: NDM-1 (Klebsiella pneumoniae, UniProt C7C422); experiment: biochemical; type: biochemical; conditions: fluorescence assay, CCF2-FA substrate, 1 pM enzyme, 2 hours at 25° C.; read-out: NDM-1 IC50
Sequence (C7C422 whole entry, looked up, species assumed): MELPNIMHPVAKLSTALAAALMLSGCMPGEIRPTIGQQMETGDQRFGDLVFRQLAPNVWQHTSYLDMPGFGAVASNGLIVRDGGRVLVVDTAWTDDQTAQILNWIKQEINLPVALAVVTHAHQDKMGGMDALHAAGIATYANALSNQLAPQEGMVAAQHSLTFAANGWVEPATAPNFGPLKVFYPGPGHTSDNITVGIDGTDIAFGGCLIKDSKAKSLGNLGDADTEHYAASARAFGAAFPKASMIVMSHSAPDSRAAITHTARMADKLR
pIC50: −log10 of the molar value.
Give 1 when the value for pIC50 is at least 10. Give -1 when it is less.

As a guide, the following entries are already answered.
NC[C@H](O)CNS(=O)(=O)c1ccc(-c2cccc3[nH]cnc23)c(-c2nn[nH]n2)c1S(N)(=O)=O = 1
NCCNC(=O)c1cccc(-c2ccc(S(=O)(=O)NCCN)c(S(N)(=O)=O)c2-c2nn[nH]n2)c1N = -1
N[C@H](CO)c1nc2c(-c3ccc(S(=O)(=O)N[C@H]4CNC[C@H]4N)c(S(N)(=O)=O)c3-c3nn[nH]n3)cccc2[nH]1 = -1

Note: attention shifts to another entry.
Is pIC50 for "C[C@H](CN)NS(=O)(=O)c1ccc(-c2cccn3ccnc23)c(-c2nn[nH]n2)c1S(N)(=O)=O" at or above 10?
1

###

tested on: Pseudomonas aeruginosa MB9798 vs MB9799; settings: ratio MITC95 PA_9798/MITC95 PA_9799
reported-metric: Efflux ratio
Lab note: write the figure by itself, no unit.

NCc1nc2cc(-c3ccc(S(=O)(=O)N[C@@H]4CCNC4)c(S(N)(=O)=O)c3-c3nn[nH]n3)ccc2[nH]1 = 1.00
Nc1nc2c(-c3ccc(S(=O)(=O)N4CCC[C@@H](N)C4)c(S(N)(=O)=O)c3-c3nnn[nH]3)cccc2s1 = 2.00
NCc1nc2c(-c3ccc(S(=O)(=O)NC(CN)CN)c(S(N)(=O)=O)c3-c3nn[nH]n3)cccc2[nH]1 = 1.00
C[C@@H](CCN)NS(=O)(=O)c1ccc(-c2cccc3[nH]c(N)nc23)c(-c2nn[nH]n2)c1S(N)(=O)=O = 1.00
CNCCCN(C)S(=O)(=O)c1ccc(-c2cccc3sc(N)nc23)c(-c2nnn[nH]2)c1S(N)(=O)=O.O=C(O)C(F)(F)F = 1.00
Nc1nc2c(-c3ccc(S(=O)(=O)NC[C@@]4(N)CCNC4)c(S(N)(=O)=O)c3-c3nn[nH]n3)cccc2s1 = 0.50

In the following, a different molecule is considered.
Recorded Efflux ratio of "N[C@H](CO)CNS(=O)(=O)c1ccc(-c2cccc3[nH]cnc23)c(-c2nn[nH]n2)c1S(N)(=O)=O" , please.
1.00

###

target: IMP-1 (Serratia marcescens); experiment: biochemical; assay type: biochemical; details: fluorescence assay, CCF2-FA substrate, 2 pM enzyme, 2 hours at 25° C.; read-out: IMP-1 IC50
Below, each of the compounds is paired with its reported pIC50 value.
The scale used: pIC50 is minus the common logarithm of the concentration in molar units.

Some solved entries appear below for comparison.
C[C@H](CN)NS(=O)(=O)c1ccc(-c2ccc(N)nc2)c(-c2nn[nH]n2)c1S(N)(=O)=O = 10.20
NCC(CN)NS(=O)(=O)c1ccc(-c2ccc3nccn3c2)c(-c2nn[nH]n2)c1S(N)(=O)=O = 9.23
NCCNS(=O)(=O)c1ccc(-c2cccc(C(=O)NC[C@H](N)CO)c2N)c(-c2nn[nH]n2)c1S(N)(=O)=O = 8.49
CCOC(=O)c1sc(N)nc1-c1cccc(-c2ccc(S(=O)(=O)NC(CN)CN)c(S(N)(=O)=O)c2-c2nnn[nH]2)c1 = 9.88

Recorded pIC50 of "Nc1nc2c(-c3ccc(S(=O)(=O)N4CC[C@@H](F)[C@H](N)C4)c(S(N)(=O)=O)c3-c3nn[nH]n3)cccc2[nH]1" , please.
8.23

Recorded pIC50 of Nc1nc2c(-c3ccc(S(=O)(=O)NC4(CO)CCNC4)c(S(N)(=O)=O)c3-c3nnn[nH]3)cccc2s1 (stereo not shown) [Example 83] , please.
9.58

Recorded pIC50 of "NC[C@@H](CO)NS(=O)(=O)c1ccc(-c2cccc3[nH]c(N)nc23)c(-c2nnn[nH]2)c1S(N)(=O)=O" , please.
9.56

###

Below, each of the compounds is paired with its reported pIC50 value.
target: NDM-1 (Klebsiella pneumoniae, UniProt C7C422); test: biochemical; assay type: biochemical; conditions: fluorescence assay, CCF2-FA substrate, 1 pM enzyme, 2 hours at 25° C.; read-out: NDM-1 IC50
The scale used: pIC50 is minus the common logarithm of the concentration in molar units.

Some solved entries appear below for comparison.
NC[C@H](N)CNS(=O)(=O)c1ccc(-c2cccn3ccnc23)c(-c2nn[nH]n2)c1S(N)(=O)=O [Example 374] = 9.80
CN(C1CNC1)S(=O)(=O)c1ccc(-c2cccc3sc(N)nc23)c(-c2nnn[nH]2)c1S(N)(=O)=O.O=C(O)C(F)(F)F [Example 105, 2,2,2-trifluoroacetate] = 9.69

In the following, a different compound is considered.
Recorded pIC50 of NCCNS(=O)(=O)c1ccc(-c2cccc(NC(=O)[C@H](N)CO)c2)c(-c2nn[nH]n2)c1S(N)(=O)=O [Example 454] , please.
9.12

###

target: VIM-1 (Pseudomonas aeruginosa (strain ATCC 15692 / DSM 22644 / CIP 104116 / JCM 14847 / LMG 12228 / 1C / PRS 101 / PAO1)); test: biochemical; conditions: fluorescence assay, CCF2-FA substrate, 30 pM enzyme, 2 hours at 25° C.; read-out: VIM-1 IC50
reported-metric: pIC50
The scale used: pIC50 is minus the common logarithm of the concentration in molar units.

Recorded pIC50 of NCC(F)(F)c1nc2c(-c3ccc(S(=O)(=O)N[C@H]4CCNC4)c(S(N)(=O)=O)c3-c3nn[nH]n3)cccc2[nH]1 [Example 446] , please.
9.82

Recorded pIC50 of NC[C@@H](O)CNS(=O)(=O)c1ccc(-c2cccc3[nH]c(N)nc23)c(-c2nn[nH]n2)c1S(N)(=O)=O [Example 298] , please.
9.87

Recorded pIC50 of Nc1ccc(-c2ccc(S(=O)(=O)N[C@@H]3CNC[C@@H]3N)c(S(N)(=O)=O)c2-c2nn[nH]n2)cn1 [Example 414] , please.
9.46

Recorded pIC50 of NS(=O)(=O)c1c(S(=O)(=O)N[C@@H]2CNC[C@@H]2O)ccc(-c2cccc3[nH]nnc23)c1-c1nn[nH]n1 [Example 412] , please.
9.49

###

Below, each of the compounds is paired with its reported pIC50 value.
biological target: VIM-1 (Pseudomonas aeruginosa (strain ATCC 15692 / DSM 22644 / CIP 104116 / JCM 14847 / LMG 12228 / 1C / PRS 101 / PAO1), UniProt A0A0F7KYQ8); assay: biochemical; details: fluorescence assay, CCF2-FA substrate, 30 pM enzyme, 2 hours at 25° C.; read-out: VIM-1 IC50
The scale used: pIC50 is minus the common logarithm of the concentration in molar units.

Some solved entries appear below for comparison.
CN(C)CCCN(C)S(=O)(=O)c1ccc(-c2cccc3sc(N)nc23)c(-c2nnn[nH]2)c1S(N)(=O)=O [Example 52] = 7.60
Nc1nc2c(-c3ccc(S(=O)(=O)NC4(CO)CCNC4)c(S(N)(=O)=O)c3-c3nnn[nH]3)cccc2s1 (centres unmarked) [Example 83] = 9.68
CO[C@H]1CNC[C@@H]1NS(=O)(=O)c1ccc(-c2cccc3sc(N)nc23)c(-c2nnn[nH]2)c1S(N)(=O)=O.O=C(O)C(F)(F)F [Example 108, 2,2,2-trifluoroacetate] = 9.57

Recorded pIC50 of Nc1nc2c(-c3ccc(S(=O)(=O)NC[C@@H](N)CO)c(S(N)(=O)=O)c3-c3nn[nH]n3)cccc2[nH]1 [Example 190] , please.
9.55

Recorded pIC50 of NC[C@@H](CO)NS(=O)(=O)c1ccc(-c2cccc(N)n2)c(-c2nn[nH]n2)c1S(N)(=O)=O [Example 382] , please.
9.57

Recorded pIC50 of Nc1nc2c(-c3ccc(S(=O)(=O)N4CCC(F)(F)C4)c(S(N)(=O)=O)c3-c3nnn[nH]3)cccc2s1 [Example 43] , please.
8.73

Recorded pIC50 of NCCOCCNS(=O)(=O)c1ccc(-c2cccc3sc(N)nc23)c(-c2nnn[nH]2)c1S(N)(=O)=O [Example 203] , please.
9.73

Recorded pIC50 of Cn1c(N)nc2c(-c3ccc(S(N)(=O)=O)c(S(N)(=O)=O)c3-c3nn[nH]n3)cccc21 [Example 5] , please.
9.84

###

target: IMP-1 (Serratia marcescens, UniProt P52699); experiment: biochemical; format: biochemical; conditions: fluorescence assay, CCF2-FA substrate, 2 pM enzyme, 2 hours at 25° C.; read-out: IMP-1 IC50
Sequence (P52699 whole entry, looked up, species assumed): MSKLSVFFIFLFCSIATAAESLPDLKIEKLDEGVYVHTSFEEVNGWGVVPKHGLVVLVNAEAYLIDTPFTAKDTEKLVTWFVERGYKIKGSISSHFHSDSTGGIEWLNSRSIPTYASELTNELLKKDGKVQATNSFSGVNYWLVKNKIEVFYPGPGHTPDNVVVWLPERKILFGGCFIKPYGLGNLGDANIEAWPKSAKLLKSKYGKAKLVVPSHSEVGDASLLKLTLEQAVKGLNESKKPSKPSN
Below, each of the compounds is paired with its reported pIC50 value.
The scale used: pIC50 is minus the common logarithm of the concentration in molar units.

Some solved entries appear below for comparison.
NCc1ncc(-c2cccc(-c3ccc(S(=O)(=O)N[C@@H]4CCNC4)c(S(N)(=O)=O)c3-c3nn[nH]n3)c2)[nH]1 = 9.19
CN(C1CCCNC1)S(=O)(=O)c1ccc(-c2cccc3sc(N)nc23)c(-c2nnn[nH]2)c1S(N)(=O)=O (centres unmarked) = 8.67
NCc1nc2cc(-c3ccc(S(=O)(=O)N[C@@H]4CCNC4)c(S(N)(=O)=O)c3-c3nn[nH]n3)ccc2s1 = 9.77
NC[C@@H]1C[C@@H](NS(=O)(=O)c2ccc(-c3cccc4[nH]c(N)nc34)c(-c3nn[nH]n3)c2S(N)(=O)=O)CN1 = 9.05
CNC(=O)CNS(=O)(=O)c1ccc(-c2cccc3sc(N)nc23)c(-c2nnn[nH]2)c1S(N)(=O)=O = 9.53

In the following, a different compound is considered.
Recorded pIC50 of "NCCNS(=O)(=O)c1ccc(-c2cccc(SC[C@@H](O)CN)c2)c(-c2nn[nH]n2)c1S(N)(=O)=O" , please.
8.92

Data origin: patent US10221163B2
